Target: T1, CBX8 chromodomain (residues 8-61) (UniProt Q9HC52 8-61)
T1 construct: CBX8 chromodomain, residues 8-61; Uniformly 15N-labelled for the NMR titrations; The methods name two chromodomain constructs (Addgene 62514 and GST-CBX8 8-61 in pGSTag); the purification that is described is that of the GST fusion cleaved with TEV; also called CD; CBX8 CD; source: E. coli BL21 (DE3), purified (glutathione agarose, TEV cleavage, cation exchange, Superdex 75)
T1 sequence (looked up): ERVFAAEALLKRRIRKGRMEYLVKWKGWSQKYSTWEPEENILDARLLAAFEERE
Assay: NMR titration; 1H-15N HSQC; histone peptide added to 15N-CD pre-bound to an 11 bp DNA (CD:DNA 1:1)
Details: both partners purified
Ends that are not written are not given here. trimethyl = trimethyl-lysine
measured.metric: pKd
Note on units: pKd is unitless, being -log10 of a concentration expressed in mol/L.

Ask: Using the record for KAARK(trimethyl)SAPATGG [H3K27me3 (23-34) histone peptide] , report its pKd.
Result: 3.70

Values from paper PMC6411926
